# EXPERIMENTAL DETAILS: in vivo
# CONDITION INFO: rat, plasma, po, 10 mg/kg
# Description: AUC (0 to 6h) in rat at 10 mg/kg, po
METRIC NAME: AUC(0-t) at 6 h
Hi, when you answer, please include the unit after the number. Thanks!

COMPOUND | AUC(0-t) at 6 h
CC(C)(OC(=O)N1CCC(N2CCCCC2)CC1)C1CCCC(c2cccc(F)c2)N1S(=O)(=O)c1ccc(Cl)cc1 (racemic) | 2430 ng·h/mL
C[C@H]1CN(C(C)(CO)CO)CCN1C(=O)OC1(C2CCCC(c3cccc(F)c3)N2S(=O)(=O)c2ccc(Cl)cc2)CC1 (mixture of isomers) | 1770 ng·h/mL
CC1CN(C(=O)OC2(C3CCCC(c4cccc(F)c4)N3S(=O)(=O)c3ccc(Cl)cc3)CC2)CC(C)N1 (racemic) | 1810 ng·h/mL
O=C(OC1(C2CCCC(c3cccc(F)c3)N2S(=O)(=O)c2ccc(Cl)cc2)CC1)N1C2CCC1CC(N1CC[C@@H](O)C1)C2 (mixture of isomers) | 2090 ng·h/mL
CC(C)N1CCN(C(=O)OC2(C3CCCC(c4cc(F)cc(F)c4)N3S(=O)(=O)c3ccc(Cl)cc3)CC2)CC1 (racemic) | 783 ng·h/mL
O=C(OC1(C2CCCC(c3cccc(F)c3)N2S(=O)(=O)c2ccc(Cl)cc2)CC1)N1C2CCC1CC(N1CCCCC1)C2 (racemic) | 2880 ng·h/mL
Cl.O=C(OC1(C2CCCC(c3cc(F)cc(F)c3)N2S(=O)(=O)c2ccc(Cl)cc2)CC1)N1CCNCC1 (racemic; form 2) | 6210 ng·h/mL
CCN1CCN(C(=O)OC2(C3CCCC(c4cc(F)cc(F)c4)N3S(=O)(=O)c3ccc(Cl)cc3)CC2)CC1 (racemic) | 1400 ng·h/mL
O=C(OC1(C2CCCC(c3cc(F)cc(F)c3)N2S(=O)(=O)c2cc(F)cc(F)c2)CC1)N1CCN(CCO)CC1 (racemic) | 23100 ng·h/mL
O=C(OC1(C2CCCC(c3cccc(F)c3)N2S(=O)(=O)c2ccc(Cl)cc2)CC1)N1CCC(N2CCC(F)(F)CC2)CC1 (racemic) | 1670 ng·h/mL

Entry O=C(OC1(C2CCCC(c3cccc(F)c3)N2S(=O)(=O)c2ccc(Cl)cc2)CC1)N1CCN(CCO)CC1 (racemic) has what AUC(0-t) at 6 h?
2090 ng·h/mL

Entry O=C(OC1(C2CCCC(c3cc(F)cc(F)c3)N2S(=O)(=O)c2ccc(Cl)cc2)CC1)N1CCC(N2CCCCC2)CC1 (racemic) has what AUC(0-t) at 6 h?
1080 ng·h/mL

Entry C[C@H]1CN(CCO)CCN1C(=O)OC1(C2CCCC(c3cccc(F)c3)N2S(=O)(=O)c2ccc(Cl)cc2)CC1 (mixture of isomers) has what AUC(0-t) at 6 h?
7210 ng·h/mL

Entry Cl.O=C(OC1(C2CCCC(c3cccc(F)c3)N2S(=O)(=O)c2ccc(Cl)cc2)CC1)N1CCC(N2CCCCC2)CC1 (racemic; form 2) has what AUC(0-t) at 6 h?
802 ng·h/mL

Entry O=C(OC1(C2CCCC(c3cc(F)cc(F)c3)N2S(=O)(=O)c2cc(F)cc(F)c2)CC1)N1CCC(N2CCCCC2)CC1 (racemic) has what AUC(0-t) at 6 h?
5050 ng·h/mL

Entry CCC(CO)NC1CC2CCC(C1)N2C(=O)OC1(C2CCCC(c3cccc(F)c3)N2S(=O)(=O)c2ccc(Cl)cc2)CC1 (racemic) has what AUC(0-t) at 6 h?
3070 ng·h/mL

Entry O=C(OCC1CCCC(c2cccc(F)c2)N1S(=O)(=O)c1ccc(Cl)cc1)N1CCC(N2CCCCC2)CC1 (racemic) has what AUC(0-t) at 6 h?
1380 ng·h/mL

Where do these numbers come from? They come from ChEMBL document CHEMBL1138400.
